Tested on: Staphylococcus aureus (ATCC 29213)

[
  {
    "Molecule": "O=C(O)c1cn(C2CC2)c2cc(N3CCNCC3)c(F)cc2c1=O [Ciprofloxacin, ciprofloxacin, reference compound]",
    "MIC / µg/mL": 63
  },
  {
    "Molecule": "COc1ccc(-c2oc3cc(OC)cc(O)c3c(=O)c2OC)cc1 [Compound 3, 5-hydroxy-3,7,4′-trimethoxyflavone]",
    "MIC / µg/mL": 16
  },
  {
    "Molecule": "COc1ccc(-c2oc3cc(O)cc(O)c3c(=O)c2O)cc1 [Compound 4, 3,5,7-trihydroxy-4′-methoxyflavone]",
    "MIC / µg/mL": 250
  },
  {
    "Molecule": "COc1ccc(C2CC(=O)c3c(OC)cc(OC)cc3O2)cc1 (racemic) [Compound 2, (±)-4′,5,7-trimethoxy flavanone]",
    "MIC / µg/mL": 31
  },
  {
    "Molecule": "COc1ccc(-c2cc(=O)c3c(O)c(OC)c(O)cc3o2)cc1 [Compound 1, 5,7-dihydroxy-4′,6-dimethoxy-flavone]",
    "MIC / µg/mL": 250
  },
  {
    "Molecule": "CNC(C)C1CCC(N)C(OC2C(N)CC(N)C(OC3OCC(C)(O)C(NC)C3O)C2O)O1 (stereo not drawn) [Gentamicin, gentamicin, reference compound]",
    "MIC / µg/mL": 8
  }
]

----------
Assay: Cytotoxicity, MTT assay
Type: cell-based
Condition Details: human, C3A cells, read-out: Lethal concentration (LC50)

[
  {
    "Compound": "COc1cccc2c1C(=O)c1c(O)c3c(c(O)c1C2=O)C[C@@](O)(C(=O)CO)C[C@@H]3O[C@H]1C[C@H](N)[C@H](O)[C@H](C)O1 [Doxorubicin, Doxorubicin chloride, reference compound]",
    "CC50": "3.3 µg/mL"
  }
]

----------
In this section, each of the molecules is paired with its reported MIC.
Test system: Aspergillus fumigatus from a chicken
Assay: MIC, serial microdilution with INT
Assay type: cell-based
Condition Details: Aspergillus fumigatus, 48 h, read-out: Minimum inhibitory concentration
Protocol: […] Ten mg/mL of each fraction and 1 mg/mL of isolated compounds were prepared in 10% DMSO and tested against S. aureus, E. coli, K. pneumoniae, E. faecalis, P. aeruginosa, C. albicans, C. neoformans and A. fumigatus. […] Each bacterial culture was diluted in fresh MHB and the absorbance was measured at a wavelength of 560 nm using a microplate reader (Epoch Biotek). The readings were compared to a McFarland standard No. 1 correlating to approximately 3 × 10^8 cfu/mL). […]

[
  {
    "Molecule": "COc1ccc(-c2oc3cc(OC)cc(O)c3c(=O)c2OC)cc1 [Compound 3, 5-hydroxy-3,7,4′-trimethoxyflavone]",
    "MIC": "31 µg/mL"
  },
  {
    "Molecule": "COc1ccc(C2CC(=O)c3c(OC)cc(OC)cc3O2)cc1 (racemic) [Compound 2, (±)-4′,5,7-trimethoxy flavanone]",
    "MIC": "16 µg/mL"
  },
  {
    "Molecule": "COc1ccc(-c2oc3cc(O)cc(O)c3c(=O)c2O)cc1 [Compound 4, 3,5,7-trihydroxy-4′-methoxyflavone]",
    "MIC": "250 µg/mL"
  },
  {
    "Molecule": "COc1ccc(-c2cc(=O)c3c(O)c(OC)c(O)cc3o2)cc1 [Compound 1, 5,7-dihydroxy-4′,6-dimethoxy-flavone]",
    "MIC": "63 µg/mL"
  },
  {
    "Molecule": "C[C@@H]1[C@H](O)[C@@H](C)/C=C/C=C/C=C/C=C/C=C/C=C/C=C/[C@H](O[C@@H]2O[C@H](C)[C@@H](O)[C@H](N)[C@@H]2O)C[C@@H]2O[C@](O)(C[C@@H](O)C[C@@H](O)[C@H](O)CC[C@@H](O)C[C@@H](O)CC(=O)O[C@H]1C)C[C@H](O)[C@H]2C(=O)O [Amphotericin B, amphotericin B, reference compound]",
    "MIC": "31 µg/mL"
  }
]

src = paper PMC7376718
